B1: TPR 5TU (parent)
chain: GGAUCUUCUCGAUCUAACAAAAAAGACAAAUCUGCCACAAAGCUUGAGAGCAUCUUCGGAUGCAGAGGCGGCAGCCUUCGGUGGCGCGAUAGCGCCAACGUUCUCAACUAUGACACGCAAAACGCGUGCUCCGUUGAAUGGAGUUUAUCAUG

# Variants of: B1
# Assay summary: polymerase ribozyme fitness, log enrichment relative to wild type (log ratio); higher = more active; in vitro selection for triplet polymerase activity
Variants at the floor of the assay were thinned out.
Below, each entry is listed with its recorded polymerase ribozyme fitness (log ratio).
Measured metric: polymerase ribozyme fitness (log ratio)

{"Mutation id": "C18G C32G C35U G86U C105G A115C", "Measured metric": "polymerase ribozyme fitness (log ratio)", "Bound sign": "=", "Numeric readout": -4}
{"Mutation id": "G83U A150G", "Measured metric": "polymerase ribozyme fitness (log ratio)", "Bound sign": "=", "Numeric readout": -3.14}
{"Mutation id": "A29C A30U A97U C103U C116G G133A", "Measured metric": "polymerase ribozyme fitness (log ratio)", "Bound sign": "≤", "Numeric readout": -4.2}
{"Mutation id": "C51G G62C C85A G143A", "Measured metric": "polymerase ribozyme fitness (log ratio)", "Bound sign": "=", "Numeric readout": -1.5}
{"Mutation id": "U4A", "Measured metric": "polymerase ribozyme fitness (log ratio)", "Bound sign": "=", "Numeric readout": -0.014}
{"Mutation id": "U6C C8A U111G G143C", "Measured metric": "polymerase ribozyme fitness (log ratio)", "Bound sign": "≤", "Numeric readout": -4.2}
{"Mutation id": "U102C A150C", "Measured metric": "polymerase ribozyme fitness (log ratio)", "Bound sign": "=", "Numeric readout": -4.08}
{"Mutation id": "G71A A91U C95G A119U A121G C129A A147G", "Measured metric": "polymerase ribozyme fitness (log ratio)", "Bound sign": "≤", "Numeric readout": -4.2}
{"Mutation id": "A47C C51U G58C G70A C96U A106U U151C", "Measured metric": "polymerase ribozyme fitness (log ratio)", "Bound sign": "≤", "Numeric readout": -4.2}
{"Mutation id": "C43A A73G G83A A89U U90C G136C G141C", "Measured metric": "polymerase ribozyme fitness (log ratio)", "Bound sign": "≤", "Numeric readout": -4.2}
{"Mutation id": "A21U A41G A60U C85U C103G C123A", "Measured metric": "polymerase ribozyme fitness (log ratio)", "Bound sign": "=", "Numeric readout": -3.69}
{"Mutation id": "C35U G46U C96U", "Measured metric": "polymerase ribozyme fitness (log ratio)", "Bound sign": "=", "Numeric readout": -1.23}
{"Mutation id": "A23G C76A", "Measured metric": "polymerase ribozyme fitness (log ratio)", "Bound sign": "=", "Numeric readout": -2.49}
{"Mutation id": "A52U G84U G86A A91U A121U", "Measured metric": "polymerase ribozyme fitness (log ratio)", "Bound sign": "≤", "Numeric readout": -4.2}
{"Mutation id": "A40C U45A G50A A73U G92A", "Measured metric": "polymerase ribozyme fitness (log ratio)", "Bound sign": "≤", "Numeric readout": -4.2}
{"Mutation id": "A41U A52C A98U", "Measured metric": "polymerase ribozyme fitness (log ratio)", "Bound sign": "=", "Numeric readout": -2.65}
{"Mutation id": "C5U C8G U9G U61G U77A G84A U146C", "Measured metric": "polymerase ribozyme fitness (log ratio)", "Bound sign": "≤", "Numeric readout": -4.2}
{"Mutation id": "U82G C87U U146C", "Measured metric": "polymerase ribozyme fitness (log ratio)", "Bound sign": "=", "Numeric readout": -0.959}
